B1: FBF1 (parent)
chain: QLQCSPAELQAELLHSQARLAELE

variants of: B1; test: protein stability index of a GFP-peptide fusion (GPS, HEK-293T) (PSI 1-6); higher = more stable; conditions: c terminus: a fixed tail appended;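 also: lentivirally expressed fusions sorted by FACS into six bins by GFP to DsRed ratio, PSI derived from sequencing read proportions per bin multiplied by bin number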
quantity: protein stability index
Answer using only a numeral; do not append any unit.

1) QLQCSPAELQAELLHSHARLAELE [Q17H] ... 4.31

Which protein stability index value is on record for QLQCSPAELQAVLLHSQARLAELE [E12V] ? 3.17

Ref: the supplement of paper PMC10567573
